Molecular target: h-P2X2R (Homo sapiens, UniProt Q9UBL9)
Sequence (Q9UBL9 1-471): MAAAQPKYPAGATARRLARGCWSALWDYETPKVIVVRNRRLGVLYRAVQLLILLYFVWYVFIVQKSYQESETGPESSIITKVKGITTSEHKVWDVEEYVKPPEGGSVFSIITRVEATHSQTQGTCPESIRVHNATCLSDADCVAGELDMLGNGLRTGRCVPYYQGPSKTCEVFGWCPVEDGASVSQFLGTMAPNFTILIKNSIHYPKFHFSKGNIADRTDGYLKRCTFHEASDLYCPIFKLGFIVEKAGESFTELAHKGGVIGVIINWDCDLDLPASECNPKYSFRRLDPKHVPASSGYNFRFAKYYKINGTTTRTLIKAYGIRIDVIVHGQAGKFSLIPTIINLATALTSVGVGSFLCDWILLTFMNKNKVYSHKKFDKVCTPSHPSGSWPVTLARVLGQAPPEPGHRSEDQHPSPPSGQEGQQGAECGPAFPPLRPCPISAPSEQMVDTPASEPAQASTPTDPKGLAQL
Assay: Ca2+ influx assay
Assay type: cell-based
reported.endpoint: pEC50
The meaning of pEC50 here: minus log10 of the concentration in molar units.

Lookup: Param item = Nc1ncnc2c1ncn2[C@@H]1O[C@H](COP(=O)(O)OP(=O)(O)OP(=O)(O)O)[C@@H](O)[C@H]1O [ATP, adenosine triphosphate, reference compound] ; retrieve measured pEC50.
Found: 5.83
